molecular target: LILRA3 (human (not printed on the sheet), UniProt Q8N6C8); experiment: LILR reporter cells on coated antibody, GFP positive (%)
Sequence (Q8N6C8 24-439 limits assumed): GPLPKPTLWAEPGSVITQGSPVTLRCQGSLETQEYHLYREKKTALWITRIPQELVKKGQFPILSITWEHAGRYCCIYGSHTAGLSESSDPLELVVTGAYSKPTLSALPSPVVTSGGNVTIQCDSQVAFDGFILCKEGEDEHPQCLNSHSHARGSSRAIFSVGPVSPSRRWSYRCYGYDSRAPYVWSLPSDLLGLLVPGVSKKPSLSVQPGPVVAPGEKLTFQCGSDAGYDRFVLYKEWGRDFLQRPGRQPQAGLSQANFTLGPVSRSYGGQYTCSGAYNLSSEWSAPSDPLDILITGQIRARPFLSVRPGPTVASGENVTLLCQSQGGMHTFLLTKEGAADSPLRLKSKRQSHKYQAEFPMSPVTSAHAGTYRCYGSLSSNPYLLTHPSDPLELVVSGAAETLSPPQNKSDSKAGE
quantity-name: binding result

// binding result value for h193 antibody No. 20 (h193-H3 / h193-K2) (antibody, V domains shown) VH: EVQLVESGGGLVQPGGSLRLSCAASGFSLSSSYWISWVRQAPGKGLEWIGSIDSGSVGITYYATWAKGRFTISRDNSKNTLYLQMNSLRAEDTAVYYCARHGDNWALDLWGQGTLVTVSS VL: DLVMTQSPSTLSASVGDRVTITCQASQSINSWLAWYQQKPGKPPKLLIYKASTLASGVSSRFSGSGSGTEFTLTISSLQPDDVATYYCQHGYIRGDLDNVFGGGTKVEIK : no binding

// sample h193 antibody No. 35 (h193-H7 / h193-K1) (antibody, V domains shown) VH: EVQLVESGGGLVQPGGSLRLSCAASGFSLSSSYWISWVRQAPGKGLEWIGSIDSGSVGITYYATWVKGRFTISRDNSKNTLYLQMNSLRAEDTAVYYCARHGDNWALDLWGQGTLVTVSS VL: DIQMTQSPSTLSASVGDRVTITCQASQSINSWLAWYQQKPGKAPKLLIYKASTLASGVPSRFSGSGSGTEFTLTISSLQPDDFATYYCQHGYIRGDLDNVFGGGTKVEIK , its binding result was no binding

The recorded binding result for h193 antibody No. 19 (h193-H3 / h193-K1) (antibody, V domains shown) VH: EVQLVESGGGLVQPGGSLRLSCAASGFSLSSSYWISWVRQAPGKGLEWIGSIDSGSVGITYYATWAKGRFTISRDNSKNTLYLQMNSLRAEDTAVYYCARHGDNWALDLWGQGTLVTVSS VL: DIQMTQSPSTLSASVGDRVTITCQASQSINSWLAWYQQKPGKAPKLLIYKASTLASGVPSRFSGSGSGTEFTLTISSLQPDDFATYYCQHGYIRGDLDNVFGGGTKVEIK is no binding
